Hey, just so you know, these numbers are from PubChem BioAssay (NCI).

tested on: SNB-19 CNS; assay: NCI-60 one-dose screen, 48 h (100 = growth as untreated, 0 = no growth, -100 = all killed); conditions: 10 µM unless noted
Compounds without any hit were thinned out: in the full panel of roughly 83,000, 20% have a hit.
Hi there, I'd appreciate the recorded growth for every entry that follows.
Expressed in %, but write only the number.

What value of growth has been reported for the following compound? COc1ccn2c(C(C)=O)cc(C(=O)c3ccc4c(c3)Sc3ccccc3N4)c2c1
40.3

What value of growth has been reported for the following compound? NCCNc1nc2ccccc2c2c(=O)c3cc(F)ccc3sc12
78.1

What value of growth has been reported for the following compound? CN1CCN(c2ccc(-c3ccc4ncc(C#N)c(Nc5ccc(F)c(Cl)c5)c4c3)cc2)CC1
72.7

What value of growth has been reported for the following compound? COc1c(N2CC3CCCN(C(C)=O)C3C2)c(F)cc2c(=O)c(C(=O)N[C@H]3C(O)[C@@H](O)C(CO)O[C@H]3O)cn(C3CC3)c12 (stereo not given in full)
99.4

What value of growth has been reported for the following compound? O=C(Cc1ccc2c(c1)OCCO2)Nc1nc2ccc(F)cc2s1
116

What value of growth has been reported for the following compound? Cc1cccc(NCc2cn(-c3ccc(C(=O)O)cc3)nc2-c2ccc(C(=O)O)cc2)n1
104

What value of growth has been reported for the following compound? O=C1c2cccc3cccc(c23)C(=O)N1Nc1nc(N2CCOCC2)nc(N2CCN(c3ccccc3)CC2)n1
45.6

What value of growth has been reported for the following compound? CN1C(=O)N(C)C2Nn3c(s/c(=C\c4ccccc4)c3=O)=NC21 (stereo not given)
95.6

What value of growth has been reported for the following compound? COc1cc2cc(Oc3ccc(NC(=O)Nc4ccc(F)c(C(F)(F)F)c4)cc3)c(C)nc2cc1OCCN1CCOCC1
25.1

What value of growth has been reported for the following compound? c1ccc(Cc2nn3cc(-c4ccccc4)nc3s2)cc1
103

What value of growth has been reported for the following compound? O=c1[nH][n+](-c2ccc(Br)cc2)no1
77.8

What value of growth has been reported for the following compound? Fc1cc2c(cc1Cl)N(c1ncnc3ccc(-c4cnc5cnccn45)cc13)CC2
86.2

What value of growth has been reported for the following compound? COc1cccc(Cc2nn3cc(-c4ccccc4)nc3s2)c1
102

What value of growth has been reported for the following compound? CCCCn1c(=O)c(-c2cc(-c3ccc(Cl)cc3)nc(-c3ccc(Cl)cc3)c2)cc2ccc(Cl)cc21
96.1

What value of growth has been reported for the following compound? O=C(Nc1ccc(-c2nc(-c3cccc(OCCN4CCOCC4)c3)c(-c3ccnc(Br)c3)[nH]2)cc1)c1ccccc1
-0.968

What value of growth has been reported for the following compound? Cc1ccc2nc(NC(=O)CSc3nc(Cl)c(C#N)c(-c4ccccc4)n3)sc2c1
96

What value of growth has been reported for the following compound? NC(=O)C1(Nc2ccc(Br)cc2)CCCC1
105

What value of growth has been reported for the following compound? NCCCNc1nc2ccccc2c2c(=O)c3cc(C(F)(F)F)ccc3sc12
30.4

What value of growth has been reported for the following compound? COc1ccc(NC(=O)n2nc(/C=C\c3ccc(O)c(OC)c3)cc2/C=C\c2ccc(O)c(OC)c2)cc1
38.9

What value of growth has been reported for the following compound? COc1c(B(O)O)cc(C)cc1-c1nc2ccc3[nH]ncc3c2c2c1CCCC2
74

====

tested on: 786-0 renal; assay: NCI-60 one-dose screen, 48 h (100 = growth as untreated, 0 = no growth, -100 = all killed); settings: 10 µM unless noted
The panel holds about 83,000 compounds, 20% with a hit somewhere; the sample as a whole holds those more often.
measure: growth (%)
Expressed in %, but write only the number.

What value of growth has been reported for the following molecule? COc1ccc(NC2=C(Br)C(=O)C(C)=C(C)C2=O)cc1
103

What value of growth has been reported for the following molecule? Cc1cccc2c(=O)c3c(sc12)c(NCc1ccccc1)nc1ccccc13
100

What value of growth has been reported for the following molecule? CCn1cnc2c1c(=O)[nH]c(=O)n2CC1CCC(CNS(=O)(=O)c2ccc(OC3CCOCC3)c(F)c2)CC1 (stereo not given)
47.4

What value of growth has been reported for the following molecule? COc1cc(C(=O)/C=C/c2sc(Cl)nc2Cl)cc(OC)c1OC
79.2

What value of growth has been reported for the following molecule? CCCCCCn1c(-c2ccc(C(=O)O/N=C(\N)c3ccc4ccccc4c3)cc2)nc(-c2ccccc2)c1-c1ccccc1
4.48

What value of growth has been reported for the following molecule? CC(C)c1cc(C(C)C)c(S(=O)(=O)Oc2ccc(NC(=O)c3ccc(Cl)cc3)cc2)c(C(C)C)c1
33.8

What value of growth has been reported for the following molecule? COc1ccc(N)c(N)c1
102

What value of growth has been reported for the following molecule? Cc1ccc(/C=N\NC(=O)c2[nH]c3ccc(F)cc3c2-c2ccccc2)cc1
35.1

What value of growth has been reported for the following molecule? O=C(Cc1ccc(F)c(Cl)c1)Nc1cc(C2(C(F)(F)F)CC2)nn1Cc1ccccc1
34.6

What value of growth has been reported for the following molecule? CN1CCN(c2ccc(-c3ccc4ncc(C#N)c(Nc5ccc(F)c(Cl)c5)c4c3)cc2)CC1
45.4

What value of growth has been reported for the following molecule? COc1nc2ccccc2cc1-c1nc2c(cnn2-c2ccccc2)c(=O)[nH]1
61.9

What value of growth has been reported for the following molecule? CCc1cccc2c1S/C(=C/c1ccc(OC)cc1)C2=O
63.6

What value of growth has been reported for the following molecule? O=C(Nc1ccc(I)cc1F)c1cc(I)ccc1O
2.12

What value of growth has been reported for the following molecule? c1cc(-c2nnc(SSc3ncnc4nc[nH]c34)o2)ccn1
13.8

What value of growth has been reported for the following molecule? COc1ccc2nc(NC(=O)c3cccnc3Nc3ccc(S(N)(=O)=O)cc3)sc2c1
78.3

What value of growth has been reported for the following molecule? COc1cc(/C=C/c2c(C(C)=O)c(C)nc3ccccc23)cc(OC)c1OC
42.4

What value of growth has been reported for the following molecule? COc1ccc(C2CC(c3ccc(Nc4nc(Nc5ccc(F)cc5)nc(Nc5ccc(Cl)cc5)n4)cc3)=NN2C(C)=O)cc1 (stereo not given)
98.9

What value of growth has been reported for the following molecule? O=c1ccc(N=Nc2ccccc2)ccc1Cl
48.8

What value of growth has been reported for the following molecule? CC1=C([Se]CC(OC(=O)[C@@H](CSSC(C)(C)C)NC(=O)OC(C)(C)C)C(=O)NC(C)(C)C)C(=O)c2ccccc2C1=O (stereo not given in full)
-93.8

What value of growth has been reported for the following molecule? CNC(C)[C@H]1CCC2C3CCC4C[C@@H](N(C)C(=O)c5ccccc5)CC[C@]4(C)C3CC[C@@]21C (stereo not given in full)
40.1

What value of growth has been reported for the following molecule? CCc1ccc2nc(NC(=O)Cc3csc(NC(=O)c4ccco4)n3)sc2c1
71.6

What value of growth has been reported for the following molecule? Cc1ccc(-c2cnc3sc(C(=O)NCCc4ccccc4)c(C)n23)cc1
97.7

What value of growth has been reported for the following molecule? NCCCNc1nc2ccc(Cl)cc2c2c(=O)c3cc(F)ccc3sc12
72.7

What value of growth has been reported for the following molecule? COc1ccc(/C=C(\C#N)n2nnc3c(F)cccc32)cc1
15.9

What value of growth has been reported for the following molecule? CCc1cccc2c1S/C(=C/c1ccc(Cl)cc1)C2=O
100

What value of growth has been reported for the following molecule? CCOC(=O)c1sc2ncc(-c3ccc(OC)cc3)n2c1C
106

What value of growth has been reported for the following molecule? CC1Cc2ccccc2N1NC(=O)c1ccc(Cl)c(S(N)(=O)=O)c1 (stereo not given)
96.6

What value of growth has been reported for the following molecule? COc1cc2cc(Oc3ccc(NC(=O)Nc4ccc(Cl)c(Cl)c4)cc3)c(C)nc2cc1OCCN1CCOCC1
91.5

What value of growth has been reported for the following molecule? COc1ccc(-c2nc3sc(-c4ccc(Cl)cc4)cn3n2)cc1
-75.8

What value of growth has been reported for the following molecule? O=C(O)C(c1ccccc1)N1C(=O)CSC1=S (stereo not given)
102

What value of growth has been reported for the following molecule? COc1cc(C(=O)c2cnc(-c3cccc4[nH]ccc34)[nH]2)cc(OC)c1OC
6.82

What value of growth has been reported for the following molecule? COc1cc(C(=O)/C=C/c2c(Cl)nc3sccn23)cc(OC)c1OC
91.6

What value of growth has been reported for the following molecule? Cc1nn(-c2ccccc2)c2c1N=c1s/c(=C\c3ccc(C(F)(F)F)cc3)c(=O)n1CN2
73.2

What value of growth has been reported for the following molecule? CC1Cc2c(ncn3c(-c4ccc(F)cc4)nnc23)N(C)c2ccccc21 (stereo not given)
29.9

What value of growth has been reported for the following molecule? COc1cc2cc(Oc3ccc(NC(=O)Nc4cc(C(F)(F)F)cc(C(F)(F)F)c4)cc3)c(C)nc2cc1OCCN1CCOCC1
30.9

What value of growth has been reported for the following molecule? CCc1ccc(Oc2c(-c3ccc(OCCc4cccc(C(F)(F)F)c4)cc3O)n[nH]c2C(F)(F)F)cc1
91.2

What value of growth has been reported for the following molecule? N#Cc1c(-c2ccc(Cl)cc2)nc(NCCO)[nH]c1=O
101

What value of growth has been reported for the following molecule? COc1ccc(OC)c(/C=C2\Oc3cc(OCCN4CCC(Cc5ccccc5)CC4)ccc3C2=O)c1
77.6

What value of growth has been reported for the following molecule? C#C[C@]1(O)CC[C@H]2[C@@H]3CC=C4c5sc(Nc6ccccc6)nc5CC[C@]4(C)[C@H]3CC[C@@]21C
-36.5

What value of growth has been reported for the following molecule? COc1ccc2c(c1)c(-c1nn3cc(-c4cccs4)nc3s1)cn2C
97.5
